Cited source: patent US9162992B2

# assay.notes: Solubility in solvents and IV solutions
# Type: physicochemical
# stated.conditions: aqueous with cosolvent or surfactant or cyclodextrin, thermodynamic from solid, 70% PEG-400; read-out: Solubility
value.kind: solubility

[in] Given the compound CCCNc1nc(NCCC)nc(N(C)OC)n1.O=S(=O)(O)O [XXXVI] , what is its reported solubility?
[out] ≥ 90 mg/mL

====

# assayed.target: rat KCNK3/TASK-1 (Rattus norvegicus)
# Sequence (O54912 whole entry): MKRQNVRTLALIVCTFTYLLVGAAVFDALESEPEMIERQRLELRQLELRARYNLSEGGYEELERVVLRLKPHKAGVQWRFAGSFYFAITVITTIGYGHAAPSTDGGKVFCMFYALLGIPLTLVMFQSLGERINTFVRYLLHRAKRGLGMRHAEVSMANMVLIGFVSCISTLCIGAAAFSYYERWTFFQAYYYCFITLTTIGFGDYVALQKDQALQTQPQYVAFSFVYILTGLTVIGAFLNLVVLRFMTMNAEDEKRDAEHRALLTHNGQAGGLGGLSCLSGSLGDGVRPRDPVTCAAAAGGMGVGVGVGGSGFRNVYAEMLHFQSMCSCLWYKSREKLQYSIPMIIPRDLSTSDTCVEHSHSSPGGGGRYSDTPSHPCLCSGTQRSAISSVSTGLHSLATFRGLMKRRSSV
# assay.notes: Thallium flux through rat TASK-1 (KCNK3-CHO cells)
# stated.conditions: Tl+ flux; 3 nM to 30 μM; read-out: rTASK-1 IC50
value.kind: pIC50
Entry type: numeric. Quantity: pIC50, the -log10 of concentration in molar units.

CCCNc1cc(N(C)OC)nc(NCCC)n1 [CXXI]	6.66

[in] Please tell me: pIC50 of CCCNc1nc(NCCC)nc(NOC)n1.Cl [XLII, hydrochloride] , system rat KCNK3/TASK-1 (Rattus norvegicus)?
[out] 7.30

[in] Please tell me: pIC50 of CCCNc1nc(NCCC)nc(NN(C)C)n1 [XLVI] , system rat KCNK3/TASK-1 (Rattus norvegicus)?
[out] 6.22

====

# assay.notes: Stability as a function of buffer strength (1 mg/mL, citrate pH 3.0)
# Assay type: physicochemical
# stated.conditions: 100 mM; 60° C. 2 wk; unit assumed
value.kind: Impurities
State the result as a value with its unit after it.

[in] Given the molecule `CCCNc1nc(NCCC)nc(N(C)OC)n1` , what is its reported Impurities?
[out] 1.2%

====

# assay.notes: Solubility in solvents and IV solutions
# Assay type: physicochemical
# stated.conditions: aqueous with cosolvent or surfactant or cyclodextrin, thermodynamic from solid, 30% Propylene Glycol; read-out: Solubility
value.kind: solubility

[in] Given the compound `CCCNc1nc(NCCC)nc(N(C)OC)n1.O=S(=O)(O)O` , what is its reported solubility?
[out] > 93.2 mg/mL

====

# assay.notes: Solubility in solvents and IV solutions
# Format: physicochemical
# stated.conditions: saline or isotonic, thermodynamic from solid, 0.9% NaCl; read-out: Solubility
value.kind: solubility

[in] Given the compound CCCNc1nc(NCCC)nc(N(C)OC)n1.O=S(=O)(O)O [XXXVI] , what is its reported solubility?
[out] > 206 mg/mL

====

# assay.notes: Solubility in solvents and IV solutions
# Format: physicochemical
# stated.conditions: water, thermodynamic from solid, water, IV solutions (0.9% saline and 5% dextrose), ethanol, methanol, 30%, 70% and 100% propylene glycol; read-out: solubility
# Protocol: The solubility of (XXXXVI) and XXXV was evaluated in various solvents and IV solutions. Due to limits on the API supply at the time the study was conducted, most of the solvent systems were evaluated to a level of only 100 mg/mL even if the solution was not saturated at this level. Only in water was an attempt made to reach saturation solubility, regardless of how high that solubility might be. Solubility of the salt/free base in each solvent was evaluated in duplicate. […]
value.kind: solubility

[in] Given the compound `CCCNc1nc(NCCC)nc(N(C)OC)n1.O=S(=O)(O)O` , what is its reported solubility?
[out] > 90 mg/mL

====

# assay.notes: Stability as a function of buffer strength (1 mg/mL, citrate pH 3.0)
# Format: physicochemical
# stated.conditions: 250 mM; 40° C. 1 wk; unit assumed
value.kind: Impurities (%)
Answer in %, number only, no unit symbol.

[in] Given the compound `CCCNc1nc(NCCC)nc(N(C)OC)n1` , what is its reported Impurities?
[out] 0.21

====

# assay.notes: Solubility in solvents and IV solutions
# Assay type: physicochemical
# stated.conditions: organic solvent or mixture, thermodynamic from solid, Propylene Glycol (100%); read-out: Solubility
value.kind: solubility

[in] Given the molecule CCCNc1nc(NCCC)nc(N(C)OC)n1.O=S(=O)(O)O [XXXVI] , what is its reported solubility?
[out] > 92.1 mg/mL

====

# assay.notes: Solubility in solvents and IV solutions
# Format: physicochemical
# stated.conditions: organic solvent or mixture, thermodynamic from solid, Ethanol; read-out: Solubility
value.kind: solubility

[in] Given the molecule `CCCNc1nc(NCCC)nc(N(C)OC)n1.O=S(=O)(O)O` , what is its reported solubility?
[out] > 211 mg/mL

====

# assay.notes: Stability as a function of buffer strength (1 mg/mL, citrate pH 3.0)
# Assay type: physicochemical
# stated.conditions: 50 mM; 60° C. 2 wk; unit assumed
value.kind: Impurities (%)
Answer in %, number only, no unit symbol.

[in] Given the molecule `CCCNc1nc(NCCC)nc(N(C)OC)n1` , what is its reported Impurities?
[out] 0.87

====

# assay.notes: Solubility in solvents and IV solutions
# Assay type: physicochemical
# stated.conditions: aqueous with cosolvent or surfactant or cyclodextrin, thermodynamic from solid, 30%, 70% and 100% propylene glycol; read-out: solubility
value.kind: solubility

[in] Given the molecule `CCCNc1nc(NCCC)nc(N(C)OC)n1.O=S(=O)(O)O` , what is its reported solubility?
[out] ≥ 90 mg/mL

====

# assay.notes: Solubility in solvents and IV solutions
# Type: physicochemical
# stated.conditions: aqueous with cosolvent or surfactant or cyclodextrin, thermodynamic from solid, 30% PEG-400; read-out: Solubility
value.kind: solubility

[in] Given the molecule `CCCNc1nc(NCCC)nc(N(C)OC)n1.O=S(=O)(O)O` , what is its reported solubility?
[out] ~198 mg/mL

====

# assay.notes: Solubility in solvents and IV solutions
# Assay type: physicochemical
# stated.conditions: water, thermodynamic from solid, Solubility
Where a name gives a salt, the structure may show the parent alone.
value.kind: solubility

CCCNc1nc(NCC2CC2)nc(N(C)OC)n1 [XXV, hydrochloride]	~210 µg/mL

[in] Given the molecule `CCCNc1nc(NCCC)nc(N(C)OC)n1` , what is its reported solubility?
[out] ~210 µg/mL

====

# assay.notes: Stability as a function of buffer strength (1 mg/mL, citrate pH 3.0)
# Format: physicochemical
# stated.conditions: 100 mM; 40° C. 1 wk; unit assumed
value.kind: Impurities

[in] Given the compound CCCNc1nc(NCCC)nc(N(C)OC)n1 [XXXV] , what is its reported Impurities?
[out] 0.26%

====

# assay.notes: Stability as a function of buffer strength (1 mg/mL, citrate pH 3.0)
# Assay type: physicochemical
# stated.conditions: 10 mM; 60° C. 1 wk; unit assumed
value.kind: Impurities (%)
Answer in %, number only, no unit symbol.

[in] Given the compound `CCCNc1nc(NCCC)nc(N(C)OC)n1` , what is its reported Impurities?
[out] 0.48

====

# assay.notes: Stability as a function of buffer strength (1 mg/mL, citrate pH 3.0)
# Assay type: physicochemical
# stated.conditions: 250 mM; 40° C. 2 wk; unit assumed
value.kind: Impurities
State the result as a value with its unit after it.

[in] Given the compound `CCCNc1nc(NCCC)nc(N(C)OC)n1` , what is its reported Impurities?
[out] 0.56%

====

# assay.notes: Solubility in solvents and IV solutions
# Assay type: physicochemical
# stated.conditions: aqueous with cosolvent or surfactant or cyclodextrin, thermodynamic from solid, 70% Propylene Glycol; read-out: Solubility
value.kind: solubility

[in] Given the molecule `CCCNc1nc(NCCC)nc(N(C)OC)n1.O=S(=O)(O)O` , what is its reported solubility?
[out] > 87.8 mg/mL

====

# assay.notes: Solubility in solvents and IV solutions
# Assay type: physicochemical
# stated.conditions: organic solvent or mixture, thermodynamic from solid, solubility
value.kind: solubility

[in] Given the compound CCCNc1nc(NCCC)nc(N(C)OC)n1 [XXXV] , what is its reported solubility?
[out] > 90 mg/mL

====

# assay.notes: Stability as a function of buffer strength (1 mg/mL, citrate pH 3.0)
# Assay type: physicochemical
# stated.conditions: 50 mM; 60° C. 1 wk; unit assumed
value.kind: Impurities (%)
Answer in %, number only, no unit symbol.

[in] Given the molecule `CCCNc1nc(NCCC)nc(N(C)OC)n1` , what is its reported Impurities?
[out] 0.59

====

# assay.notes: Solubility in solvents and IV solutions
# Type: physicochemical
# stated.conditions: organic solvent or mixture, thermodynamic from solid, PEG-400 (100%); read-out: Solubility
value.kind: solubility

[in] Given the compound `CCCNc1nc(NCCC)nc(N(C)OC)n1.O=S(=O)(O)O` , what is its reported solubility?
[out] ~36 mg/mL

====

# assay.notes: Solubility in solvents and IV solutions
# Format: physicochemical
# stated.conditions: aqueous with cosolvent or surfactant or cyclodextrin, thermodynamic from solid, 30% and 70% PEG-400; read-out: solubility
value.kind: solubility

[in] Given the compound `CCCNc1nc(NCCC)nc(N(C)OC)n1.O=S(=O)(O)O` , what is its reported solubility?
[out] ≥ 90 mg/mL

====

# assay.notes: Stability as a function of buffer strength (1 mg/mL, citrate pH 3.0)
# Format: physicochemical
# stated.conditions: 20 mM; 60° C. 2 wk; unit assumed
value.kind: Impurities (%)
Answer in %, number only, no unit symbol.

[in] Given the molecule CCCNc1nc(NCCC)nc(N(C)OC)n1 [XXXV] , what is its reported Impurities?
[out] 0.88
